Each recorded value in this set is attributed to ChEMBL document CHEMBL1151788.

# Assay Name: Cytotoxicity against mouse EMT6/KU cells in hypoxic condition for 5 hrs measured after 7 to 10 days
# Type: functional, cell-based
Quantity Kind: pIC50
Numbers only, as −log10 of the molar value.

Please look at the items below and tell me pIC50 for each one, in order.
1. Cn1cc(C[C@H](NC(=O)OC(C)(C)C)C(=O)NCCCCNc2nc3ccccc3[n+]([O-])n2)c2ccccc21
2. Cn1cc(C[C@H](NC(=O)OC(C)(C)C)C(=O)NCCCCCNc2nc3ccccc3[n+]([O-])n2)c2ccccc21
3. Nc1n[n+]([O-])c2ccccc2[n+]1[O-]
4. Cn1cc(C[C@H](NC(=O)OC(C)(C)C)C(=O)NCCCCNc2n[n+]([O-])c3ccccc3[n+]2[O-])c2ccccc21
5. Cn1cc(C[C@H](NC(=O)OC(C)(C)C)C(=O)NCCCCCNc2n[n+]([O-])c3ccccc3[n+]2[O-])c2ccccc21

1. 4.48
2. 4.48
3. 4.92
4. 5.10
5. 5.15
